Recorded OD450 ratio sample/blank values for a group of binders are listed next.
Tested System: native soluble IL-6R in human plasma (human, UniProt P08887)
Assay Procedure: ELISA 1, periplasmic extract; competitor IL-6; human plasma
Lab note: record the figure alone, no unit after it.

Binder	OD450 ratio sample/blank
IL6RPMP120C10 (VHH) VHH: EVQLVESGGGLVQAGGSLSLSCATSGRTISDDTMAWFRQAPGKEREFVAIITFNGARTHYSDSVRDRFTISRDNAKNTVYLQMNSLKSEDTAVYYCAASTKYYSSTYNYIHPAFYDIWGQGTQVTVSS	0.139
IL6RPMP105E1 (VHH) VHH: EVQLVESGGGLVQAGGSLRLSCAASGSIFSIKAMGWYRQAPGKQRELVARITSGGSTYYADSVKGRFTISRDNAKNTVYLQMNSLKPEDTAVFYCNAIVTDSDYDLGNDYWGQGTQVTVSS	0.21
IL6RPMP105B8 (VHH) VHH: EVQLVESGGGLVRAGGSLRLSCAASGFAFDDYAIGWFRQAPGKEREGVSSISSSNGNTYYADSVRGRFTISSDNAKNTVYLQMNSLKPEDTGVYYCAAIWGIFFNEKMPVGAYDYWGQGTQVTVSS	0.808

Incoming: Complete the entry with OD450 ratio sample/blank for IL6RPMP106F4 (VHH) VHH: EVQLVESGGGLVQAGGSLRLSCAASGSIFRINAMGWYRQAPGKQRELVAAAISGGSTNYADFVKGRFTISRDNAKNTVYLQMNSLKPGDTAVYYCNALVVSHNYSDYVPFPDDYWGQGTQVTVSS
Outgoing: 0.557

Incoming: Complete the entry with OD450 ratio sample/blank for IL6RPMP120C1 (VHH) VHH: EVQLVESGGGLVQAGGSLSLSCATSGRTISDDTMAWFRQAPGKEREFVATITFSGARTHYSDSVRDRFTISRDNAKNTVYLQMNSLKSEDTAVYYCAASTKYYSSTYNYIHPAFYDIWGQGTQVTVSS
Outgoing: 0.567

Incoming: Complete the entry with OD450 ratio sample/blank for IL6RPMP107H2 (VHH) VHH: KVQLVESGGGLVQPGGSLRLSCAASGFTFSSYAMSWVRRAPGKGLEWVSAINSDGTGSSYAPFVTGRFTASRDNAKNTLYLQMNSLKPEDTAVYYCTNSNRYDYADFSAVRGQGTQVTVSS
Outgoing: 0.865

Incoming: Complete the entry with OD450 ratio sample/blank for IL6RPMP104E4 (VHH) VHH: EVQLVESGGGTVQAGGSLKLSCAASGRTFTNYAMGWFRQAPGKEREFVAAIAYATHFADSVKGRFTISRGNAKNTVYLQMNSLKPEDTAVYYCAADLSLSKMVSKITSDMDYWGKGTLVTVSS
Outgoing: 1.34

Incoming: Complete the entry with OD450 ratio sample/blank for IL6RPMP119A10 (VHH) VHH: EVQLVESGGGLVQPGGSLRLSCAASKSIFDINAMYWHRQAPGKQRESVASITSGGMRNYADSVKDRFTISKDNAKNTVYLQMNGLKPDDTAVYYCGLGRYEGGVWRDYWGQGTQVTVSS
Outgoing: 0.877

From: patent US10618964B2
